Each recorded value in this set is attributed to patent US7855199B2.

Overview of recorded melting point for various molecules

COc1cccc2c1nc(C(F)F)n2-c1nc(N2CCOCC2)nc(N2CC(C)(C)OCC2(C)C)n1; 209 to 211 °C
CCOc1cccc2c1nc(C(F)F)n2-c1nc(N2CCOCC2)cc(N2CCOCC2)n1; 188 to 190 °C
COc1cccc2c1nc(C(F)F)n2-c1nc(N2CCOCC2)cc(N2CCO[C@@H](C)[C@H]2C)n1 (relative stereo); 176 to 178 °C

Returns the measured melting point for the input molecule. Input: `COc1cccc2c1nc(C(F)F)n2-c1nc(N2CCOCC2)nc(N2C[C@@H](C)O[C@@H](C)C2)n1`
235 to 237 °C

Given `COc1cccc2c1nc(C(F)F)n2-c1nc(N2CCOCC2)cc(N2CCOC(C)(C)C2)n1` , state its recorded melting point.
166 to 168 °C

Suppose we examine the molecule `COc1cccc2c1nc(C(F)F)n2-c1nc(N2CCOCC2)cc(N2CCOCC2)n1` ; what melting point value has been reported?
203 to 205 °C

Look at this molecule and give its reported melting point. `CCOc1cccc2c1nc(C(F)F)n2-c1nc(N2CCOCC2)cc(N2CCOC(C)(C)C2)n1`
114 to 116 °C

* * *

# System: Human colon cancer WiDr
QUANTITY MEASURED: GI50 (nM)
Return type: number; implicit unit nM.

Below are worked cases with known answers.
CC1(C)CN(c2cc(N3CCOCC3)nc(-n3c(C(F)F)nc4c(O)cccc43)n2)CCO1 [compound B, reference compound]; 90
C[C@@H]1CN(c2cc(N3CCOCC3)nc(-n3c(C(F)F)nc4c(O)cccc43)n2)C[C@H](C)O1; 150

Fill in: GI50 of `COc1cccc2c1nc(C(F)F)n2-c1nc(N2CCOCC2)cc(N2CCOC(C)(C)C2)n1` is ___
140

Returns the measured GI50 for the input compound. Input: `COc1cccc2c1nc(C(F)F)n2-c1nc(N2CCOCC2)cc(N2C[C@@H](C)O[C@@H](C)C2)n1`
450
